For each entry below, report its DC50 value.
biological target: BRD4 (Homo sapiens); construct: Mean 488 intensity of BRD4 quantitated in nuclear region; endogenous in cells; host or cells: EoL-1 eosinophilic leukemia cells; experiment: BRD4 degradation assay in EOL1 cells (immunofluorescence imaging); format: cell-based; conditions: EoL-1 eosinophilic leukemia cells, 4 hours treatment, nuclear BRD4 immunofluorescence
Starred links: 1 amine or outer side, 2 acyl side, 3 side chain; linkers in the order of their positions; H or OH if unused. Positions of bridges follow the written chain, without caps; N, C: chain ends. Non-standard residues stand in square brackets, D forms with d. Residues, ends and D or L forms follow the SMILES beside them. *: point of attachment. JQ1acid = Cc1sc2c(c1C)C(c1ccc(Cl)cc1)=N[C@@H](CC(=O)*)c1nnc(C)n1-2; dPhg(4-(4-Me-thiazol-5-yl)) = Cc1ncsc1-c1ccc([C@@H](N)C(=O)O)cc1; X13 = Cc1ncsc1-c1ccc(C[C@@H](N[*:1])C(=O)[*:2])cc1; dBip = N[C@H](Cc1ccc(-c2ccccc2)cc1)C(=O)O; Hyp = O=C(O)[C@@H]1C[C@@H](O)CN1; Tle = CC(C)(C)[C@H](N)C(=O)O; dDap = NC[C@@H](N)C(=O)O; Dap = NC[C@H](N)C(=O)O; AEA = NCCOCC(=O)O

Solved entries:
• Cc1sc2c(c1C)C(c1ccc(Cl)cc1)=N[C@@H](CC(=O)NC[C@H]1NC(=O)[C@@H](C)NC(=O)[C@@H](Cc3ccc(-c4ccccc4)cc3)NC(=O)[C@@H]3C[C@@H](O)CN3C(=O)[C@H](C(C)(C)C)NC(=O)COCCNC1=O)c1nnc(C)n1-2 [Compound 58] (cyclo([AEA][Tle][Hyp][dBip][dA][dDap](JQ1acid))) = < 0.05 µM
• Cc1ncsc1-c1ccc([C@H]2NC(=O)[C@@H]3C[C@@H](O)CN3C(=O)[C@H](C(C)(C)C)NC(=O)CNC(=O)[C@H](C)NC(=O)[C@@H](CNC(=O)C[C@@H]3N=C(c4ccc(Cl)cc4)c4c(sc(C)c4C)-n4c(C)nnc43)NC(=O)CNC2=O)cc1 [Compound 33] (cyclo(AG[Tle][Hyp][dPhg(4-(4-Me-thiazol-5-yl))]G[dDap](JQ1acid))) = < 1 µM
• COc1ccc(C[C@@H]2NC(=O)[C@@H]3C[C@@H](O)CN3C(=O)[C@H](C(C)(C)C)NC(=O)CSC[C@H](C(N)=O)NC(=O)[C@@H](CNC(=O)C[C@@H]3N=C(c4ccc(Cl)cc4)c4c(sc(C)c4C)-n4c(C)nnc43)NC(=O)CNC2=O)cc1 [Compound 24] ({CH2CO}-[Tle][Hyp]Y(Me)G[dDap](JQ1acid)[dC]-NH2; thioether N-6) = > 20 µM
• Cc1ncsc1-c1ccc([C@H]2NC(=O)[C@@H]3C[C@@H](O)CN3C(=O)[C@H](C(C)(C)C)NC(=O)CSC[C@H](C(N)=O)NC(=O)[C@H](CNC(=O)C[C@@H]3N=C(c4ccc(Cl)cc4)c4c(sc(C)c4C)-n4c(C)nnc43)NC(=O)CNC2=O)cc1 [Compound 13] ({CH2CO}-[Tle][Hyp][dPhg(4-(4-Me-thiazol-5-yl))]G[Dap](JQ1acid)[dC]-NH2; thioether N-6) = > 20 µM
• Cc1ncsc1-c1ccc([C@H]2NC(=O)[C@@H]3C[C@@H](O)CN3C(=O)[C@H](C(C)(C)C)NC(=O)CSC[C@H](C(N)=O)NC(=O)[C@@H](CNC(=O)C[C@@H]3N=C(c4ccc(Cl)cc4)c4c(sc(C)c4C)-n4c(C)nnc43)NC(=O)[C@H](C)NC2=O)cc1 [Compound 12] ({CH2CO}-[Tle][Hyp][dPhg(4-(4-Me-thiazol-5-yl))]A[dDap](JQ1acid)[dC]-NH2; thioether N-6) = > 20 µM

Turning now to a further molecule:
Entry under test: Cc1ncsc1-c1ccc(C[C@H]2NC(=O)[C@@H]3C[C@@H](O)CN3C(=O)[C@H](C(C)(C)C)NC(=O)COCCNC(=O)[C@@H](CNC(=O)C[C@@H]3N=C(c4ccc(Cl)cc4)c4c(sc(C)c4C)-n4c(C)nnc43)NC(=O)[C@@H](C)NC2=O)cc1 [Compound 70] (cyclo([AEA][Tle][Hyp][X13][dA][dDap](JQ1acid))) . Its DC50 was < 0.05 µM
